TARGET OF ASSAY: T1, Aβ(1-40) monomer (human)
T1 construct: also called monomeric Aβ(1-40); Aβ(1-40) monomer, 0.1% NH4OH
T1 sequence (peptide, as listed by the source): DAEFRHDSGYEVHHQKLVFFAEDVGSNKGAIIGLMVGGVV
TEST NAME: dot blot densitometry, antibody 0.2 µg/ml; column Aβ(1-40) monomer, 0.1% NH4OH
Below, each of the binders is paired with its reported relation between recognition of Aβ(20-42) globulomer and the respective Aβ form value.

BINDER	DATA VALUE
monoclonal antibody 2F2 (antibody, V domains shown, Mouse monoclonal antibody from hybridoma; also called ML15-2F2.3E12; hybridoma ATCC PTA-7408) VH: QVQLKQSGAELVRPGTSVKMSCKASGYTFTTFYIHWVKQRPGQGLEWIGMIGPGSGNTYYNEMFKDKATLTVDTSSSTAYMQLSSLTSEDSAVYFCARAKSARAAWFAYWGQGTLVTVSA VL: DVLMTQTPLSLPVSLGDQASISCRSSQSVVQSNGNTYLEWYLQKPGQSPKLLIYKVSNRFSGVPDRFSGSGSGTDFTLKISRVEAEDLGVYYCFQGSHVPPTFGGGTKLEIKR	> 10000

binder monoclonal antibody 5F7 (antibody, V domains shown, Mouse monoclonal antibody from hybridoma, Protein A purified; also called mAb 5F7; ML15-5F7.5B10) VH: QVQLKQSGAELVRPGTSVKMSCKASGYTFTTFYIHWVKQRPGQGLEWIGMIGPGSGNTYYNEMFKDKATLTVDTSSSTAYMQLSSLTSEDSAVYFCARAKSARAAWFAYWGQGTLVTVSA VL: DVLMTQTPLSLPVSLGDQASISCRSSQSVVQSNGNTYLEWYLQKPGQSPKLLIYKVSNRFSGVPDRFSGSGSGTDFTLKISRVEAEDLGVYYCFQGSHVPPTFGGGTKLEIKR , relation between recognition of Aβ(20-42) globulomer and the respective Aβ form observed: > 10000
